- System: LOX IMVI melanoma
- assay_comment: NCI-60 one-dose screen, 48 h
- assay_setup: 10 µM
About 83,000 compounds went through this panel and 20% of them were active in at least one assay; those are over-represented in the sample as a whole. The source made the active and inactive calls. Rule for the calls: active = growth percent below 10; inactive = the rest.
Select the matching outcome among Yes (active), No (inactive)

As a guide, the following entries are already answered.
compound=O=Cc1ccc(O)c(O)c1 tested_target="LOX IMVI melanoma" category_label=No
compound=Cc1ccc(Cc2ccc(C)cc2)cc1 tested_target="LOX IMVI melanoma" category_label=No
compound=COc1ccc(C(=O)/C(=N/Nc2ccccc2)c2ccc(OC)cc2)cc1 tested_target="LOX IMVI melanoma" category_label=No
compound=Cc1ccc(C2CCCCC2)cc1Br tested_target="LOX IMVI melanoma" category_label=No
compound=COc1ccc2c(Cl)cc(NC(=O)Nc3c(C)cccc3C)nc2c1 tested_target="LOX IMVI melanoma" category_label=No

Q: Would you mind telling me which call this test gave ON1CCCC1 ?
Result: No

Q: Would you mind telling me which call this test gave COC(CCCl)c1ccc(Cl)cc1 (stereo not drawn) ?
Result: No

Q: Would you mind telling me which call this test gave OCC(O)COc1ccc(Cl)cc1Cl (stereo not drawn) ?
Result: No

Q: Would you mind telling me which call this test gave CC(=O)c1cccc(NS(=O)(=O)c2ccc(C)cc2)c1 ?
Result: No

Q: Would you mind telling me which call this test gave O=[N+]([O-])c1c(Cl)ncnc1Cl ?
Result: No

Q: Would you mind telling me which call this test gave Cn1c(=O)c2[nH]c(CCCCC(=O)O)nc2n(C)c1=O ?
Result: No

Q: Would you mind telling me which call this test gave COc1cccc(C(=O)NNC(=O)c2cccc3ccccc23)c1 ?
Result: No

Q: Would you mind telling me which call this test gave Cc1cc2nc(C)c(C)nc2cc1C ?
Result: No

Q: Would you mind telling me which call this test gave CN(C)c1ccc(O)c2c1CC1CC3C(N(C)C)C(=O)C(C(N)=O)=C(O)C3(O)C(=O)C1=C2O (stereo not drawn) ?
Result: No

Q: Would you mind telling me which call this test gave C=CCC(OC(C)=O)c1ccc(C(C)C)cc1 (stereo not drawn) ?
Result: No

Q: Would you mind telling me which call this test gave CSc1nsc(N)n1 ?
Result: No

Q: Would you mind telling me which call this test gave CC(=O)NC(CCc1ccc(Cl)c(Cl)c1)c1cccc(O)c(=O)c1 (stereo not drawn) ?
Result: Yes

Q: Would you mind telling me which call this test gave NC(CCl)=NCC12CC3CC(CC(C3)C1)C2 ?
Result: Yes

Q: Would you mind telling me which call this test gave Cc1cc(Cc2ccccc2)c(O)c(Cc2ccccc2)c1 ?
Result: No

Q: Would you mind telling me which call this test gave O=S(Cc1ccccc1)/C(=C/NC(=S)Nc1cc(Cl)ccc1Cl)c1ccccc1 (stereo not drawn) ?
Result: No

Q: Would you mind telling me which call this test gave OC1Cc2ccccc2C1 ?
Result: No

Q: Would you mind telling me which call this test gave O=C(CCCl)OCCOc1ccccc1 ?
Result: No

Q: Would you mind telling me which call this test gave CC1(C)CC(=O)C=C(N)C1 ?
Result: No

Q: Would you mind telling me which call this test gave CCC(=O)Oc1ccc2ccccc2c1 ?
Result: No

Q: Would you mind telling me which call this test gave NC(=O)OCCO ?
Result: No

Q: Would you mind telling me which call this test gave Cc1cc(Nc2ccc3c(c2)OCO3)c2cc3c(cc2n1)OCO3 ?
Result: No

Q: Would you mind telling me which call this test gave CC(C)(C)CC1(C)NC(=O)NC1=O (stereo not drawn) ?
Result: No

Q: Would you mind telling me which call this test gave O=C(CCl)Oc1ccc([N+](=O)[O-])cc1 ?
Result: No

Q: Would you mind telling me which call this test gave O=C(CC(CC(=O)c1ccccc1)c1ccccn1)c1ccccc1 ?
Result: No

Q: Would you mind telling me which call this test gave COc1ccc2c(c1)Nc1ccccc1S2 ?
Result: No
